From various publications: IC50 for Poly [ADP-ribose] polymerase 1 (Homo sapiens).
Parameter measured: IC50 (nM)

> print(dat)
                               query.smiles  quantitative.result
1  O=c1[nH]c2c(c3c1CCCC3)Cc1c(CNC3CCCC3)cccc1-2                  3.4
2  CCc1nc2cc(F)c(CN3C[C@H](Oc4ccc(C(=O)NC)nc4)[C@H]3C)cc2[nH]c1=O                  5.5
3  O=C(CCCc1nc2ccccc2c(=O)[nH]1)N1CCC(n2c(=O)[nH]c3cc(F)ccc32)CC1                  894
4  O=C(NC1CC1)c1ccc(OC2CN(Cc3cnc4cc(C5CC5)c(=O)[nH]c4c3)C2)cn1                  3.6

---

From various publications: IC50 for Poly [ADP-ribose] polymerase 1 (Homo sapiens, UniProt P09874).
Parameter measured: IC50

> print(dat)
                                   compound             result
1  CN1CCC(C)(c2cnn3c2[nH]c2cc(F)cc(C(N)=O)c23)C1 (centres unmarked)        1 to 100 nM
2  CC1(C)CC(c2nc3c(c(=O)[nH]2)CC2(CC3)CC2)=C[C@@H]1N1CCN(c2ccc(F)cc2)CC1  5000 to 500000 nM
3  N#Cc1ccc(N2CCN([C@H]3C=C(c4cc5ncncc5c(=O)[nH]4)CC3)CC2)cc1        0.5 to 5 nM
4  CC(C)(c1ccccc1)c1nnc([C@H]2CC[C@H](NC(=O)CCc3nc4ccccc4c(=O)[nH]3)CC2)o1            7450 nM
5  CC1(c2cnn3c2[nH]c2cc(F)cc(C(N)=O)c23)CN(CC2CC2)C1        1 to 100 nM
6  CCn1ccc2c(=O)[nH]c(-c3ccc(C(F)(F)F)cc3)nc21         > 50000 nM
7  CC1(c2cnn3c2[nH]c2cc(F)cc(C(N)=O)c23)CCN(CCC(F)(F)F)C1 (centres unmarked)        1 to 100 nM
8  CC(C)(C)CN1CCP(=O)(c2cc(Cc3n[nH]c(=O)c4ccccc34)ccc2F)CC1           < 100 nM

---

From various publications: IC50 for Poly [ADP-ribose] polymerase 1 (Homo sapiens).
Parameter measured: IC50

> print(dat)
                                    compound                            assayed.system             result
 1  N#Cc1cccc(O[C@H]2CC[C@H](NC(=O)CCSc3nc4ccccc4c(=O)[nH]3)CC2)c1  Poly [ADP-ribose] polymerase 1 (Homo sapiens)         > 85000 nM
 2  O=c1[nH]nc(Cc2ccc(F)c(P3(=O)CCN(c4ccc(Cl)nn4)CC3)c2)c2ccccc12  Poly [ADP-ribose] polymerase 1 (Homo sapiens)           < 100 nM
 3  CC#CCOc1ccc(C(=O)C2CCN(CC(=O)N(Cc3nc4c(c(=O)[nH]3)COCC4)CC3CC3)CC2)cc1  Poly [ADP-ribose] polymerase 1 (Homo sapiens)           14700 nM
 4  C=CCCn1ccc2c(=O)[nH]c(-c3ccc(C(F)(F)F)cc3)nc21  Poly [ADP-ribose] polymerase 1 (Homo sapiens)         > 50000 nM
 5  Cn1cc2c(n1)CN(C(=O)c1cc(Cc3n[nH]c(=O)c4ccccc34)ccc1F)C2  Poly [ADP-ribose] polymerase 1 (Homo sapiens)            29.9 nM
 6  [2H][C@@]1(c2ccc(-n3nc4c(C(N)=O)cccc4c3F)cc2)CCCNC1  Poly [ADP-ribose] polymerase 1 (Homo sapiens)      100 to 500 nM
 7  Cc1cc2ncc(CN3C[C@H](Oc4ccc(C(=O)NC5CC5)nc4)[C@H]3C)cc2[nH]c1=O  Poly [ADP-ribose] polymerase 1 (Homo sapiens)               8 nM
 8  CC(C)(O)c1ccc2c(=O)[nH]c3c(c2c1)COC(C(C)(C)C)C3 (racemic)  Poly [ADP-ribose] polymerase 1 (Homo sapiens)         > 50000 nM
 9  O=C(c1cccc(Cn2c(=O)[nH]c(=O)c3ccccc32)c1)N1CCN(C(=O)C2CC2)CC1  Poly [ADP-ribose] polymerase 1 (Homo sapiens)       0.1 to 10 nM
10  CCNC(=O)c1ccc(N2CCN(c3nc4c(ccn4C)c(=O)[nH]3)CC2)cc1  Poly [ADP-ribose] polymerase 1 (Homo sapiens)             449 nM
11  Cc1nc2ccc([C@@H](C)N3CCN(c4ccc(C(=O)NC5CC5)nc4)CC3)c(F)c2[nH]c1=O (single isomer, unassigned)  Poly [ADP-ribose] polymerase 1 (Homo sapiens)              90 nM
12  O=C(CN1CCC(n2c(=O)[nH]c3ccccc32)CC1)NCc1nc2c(c(=O)[nH]1)COCC2  Poly [ADP-ribose] polymerase 1 (Homo sapiens)           32400 nM
13  NC(=O)c1cc(F)cc2[nH]c3c(C4CCN(CC5CC5)CC4)cnn3c12  Poly [ADP-ribose] polymerase 1 (Homo sapiens)        1 to 100 nM
14  [2H][C@@]1(c2ccc(-n3cc4cccc(C(N)=O)c4n3)cc2F)CCCNC1  Poly [ADP-ribose] polymerase 1 (Homo sapiens)           < 100 nM
15  O=c1[nH]c(CCCN2CCN(c3ccc(F)cc3)CC2)nc2c1C1CCC2C1 (stereo not drawn)  Poly [ADP-ribose] polymerase 1 (Homo sapiens)  5000 to 500000 nM
16  O=c1[nH]c(CCCN2CCN(c3ccc(Cl)cc3)CC2)nc2c1C1CCC2C1 (stereo not drawn)  Poly [ADP-ribose] polymerase 1 (Homo sapiens)  5000 to 500000 nM
17  N#Cc1ccc(N2CCN([C@H]3C=C(c4cc5ncsc5c(=O)[nH]4)CC3)CC2)cc1  Poly [ADP-ribose] polymerase 1 (Homo sapiens)        0.5 to 5 nM
18  CNC(=O)c1cnc(N2CCN([C@H]3C=C(c4nc5c(c(=O)[nH]4)CC4(CC5)CC4)CC3)CC2)s1  Poly [ADP-ribose] polymerase 1 (Homo sapiens)        1 to 500 nM
19  Cn1ncc2c(=O)[nH]c3c(c21)COC(C(C)(C)C)C3 (racemic)  Poly [ADP-ribose] polymerase 1 (Homo sapiens)            2100 nM
20  O=c1[nH]nc2c3c(cc(F)cc13)NC(COCc1ccccc1)C2c1ccccc1Cl (stereo not drawn)  Poly [ADP-ribose] polymerase 1 (Homo sapiens)             593 nM
21  Cc1cccc(N2CCN([C@H]3C=C(c4nc5c(c(=O)[nH]4)CC4(CC5)CC4)CC3)CC2)c1  Poly [ADP-ribose] polymerase 1 (Homo sapiens)        1 to 500 nM
22  O=c1[nH]nc(Cc2ccc(F)c(P3(=O)CCN(c4ncccn4)CC3)c2)c2ccc(F)cc12  Poly [ADP-ribose] polymerase 1 (Homo sapiens)           < 100 nM
23  CC1(C)CN(c2ccc(F)cc2)CCN1[C@H]1C=C(c2nc3c(c(=O)[nH]2)CC2(CC3)CC2)CC1  Poly [ADP-ribose] polymerase 1 (Homo sapiens)  5000 to 500000 nM
24  O=c1[nH]c(C2=C[C@H](N3CCN(c4ccc(F)cc4F)CC3)CC2)nc2c1CC1(CC2)CC1  Poly [ADP-ribose] polymerase 1 (Homo sapiens)        1 to 500 nM
25  CN1CCP(=O)(c2cc(Cc3n[nH]c(=O)c4ccccc34)ccc2F)CC1  Poly [ADP-ribose] polymerase 1 (Homo sapiens)     100 to 1000 nM
26  COc1ccc(C(=O)C2CCN(CC(=O)NCc3nc4c(c(=O)[nH]3)COCC4)CC2)cc1  Poly [ADP-ribose] polymerase 1 (Homo sapiens)           10000 nM
27  CC(C)(C)OC(=O)N1CCC(C2Cc3[nH]c(=O)c4ccccc4c3CO2)C1 (stereo not drawn)  Poly [ADP-ribose] polymerase 1 (Homo sapiens)            69.9 nM
28  O=C(CCCc1nc2ccccc2c(=O)[nH]1)N1CCC(c2nnc(COc3ccc(Cl)cc3)o2)CC1  Poly [ADP-ribose] polymerase 1 (Homo sapiens)            3790 nM
29           Cn1ccc2c(=O)[nH]c(-n3cccn3)nc21  Poly [ADP-ribose] polymerase 1 (Homo sapiens)         > 50000 nM
30  CN1CCC(c2cnn3c2[nH]c2cc(F)cc(C(N)=O)c23)C1 (stereo not drawn)  Poly [ADP-ribose] polymerase 1 (Homo sapiens)        1 to 100 nM
31     CCOc1ccc(-c2nc3c(ccn3C)c(=O)[nH]2)cn1  Poly [ADP-ribose] polymerase 1 (Homo sapiens)             289 nM
32  O=c1[nH]c(C2=C[C@H](N3CCN(c4cccc(Cl)c4F)CC3)CC2)nc2c1CC1(CC2)CC1  Poly [ADP-ribose] polymerase 1 (Homo sapiens)     501 to 5000 nM
33  O=C(c1cc(Cc2n[nH]c(=O)c3ccccc23)ccc1F)N1CC2CCCC2C1 (stereo not drawn)  Poly [ADP-ribose] polymerase 1 (Homo sapiens)            67.8 nM
